# ASSAY_SYSTEM: T1, huCD33-G69 stably expressed on Jurkat cells (human, UniProt P20138 18-364)
# T1 construct: whole, on cells; >200,000 receptors per cell; also called CD33 Mutant; CD33 R69G
# T1 sequence (P20138 18-364 R69G): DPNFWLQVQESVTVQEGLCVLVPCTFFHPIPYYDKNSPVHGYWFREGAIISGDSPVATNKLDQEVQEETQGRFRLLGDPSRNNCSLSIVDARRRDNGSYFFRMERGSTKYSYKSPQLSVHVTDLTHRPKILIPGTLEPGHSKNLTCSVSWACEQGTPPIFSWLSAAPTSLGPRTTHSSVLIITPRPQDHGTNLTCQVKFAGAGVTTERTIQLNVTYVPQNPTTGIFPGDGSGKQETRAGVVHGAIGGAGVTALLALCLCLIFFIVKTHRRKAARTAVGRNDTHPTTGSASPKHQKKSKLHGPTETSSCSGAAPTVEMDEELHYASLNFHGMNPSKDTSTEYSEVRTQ
# MEASUREMENT_PROTOCOL: FACS on cells;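 also: fixed Jurkat cells bearing either CD33 variant, barcoded by dye, exposed to myc-tagged scFv periplasmic extracts, detected with anti-myc PE antibody and read by flow cytometry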
MEASURED_QUANTITY: geometric mean MFI fold change over Jurkat parental

As a guide, the following entries are already answered.
Polypeptide No. 4 (scFv, V domains shown, scFv) VH: QVQLVQSGAEVKKPGASVKVSCKASGGTFSSYAISWVRQAPGQGLEWMGWINPNSGNTGYAQKFQGRVTMTRDTSTSTVYMELSSLRSEDTAVYYCAREHGDMDVWGQGTTVTVSS VL: EIVMTQSPATLSVSPGERATLSCRASQNINSDLAWYQQKPGQAPRLLIYGASTRATGIPARFSGSGSGTEFTLTISSLQSEDFAVYYCQQYDSLPFTFGPGTKVDIKR; < 2 fold
Polypeptide No. 22 (scFv, V domains shown, scFv) VH: QVQLVQSGAEVKKPGASVKVSCKASGYTFTDYYIHWVRQAPGQGLEWMGWINPNSGGTNYAQEFQGRVTMTRDTSTSTVYMELSSLRSEDTAVYYCARDHRIAVAGSYFDYWGQGTLVTVSS VL: DIQMTQSPSSLSASVGDRVTITCRASRSIRTWLAWYQQKPGKAPKLLIYAASSLQTGVPSRFSGSGSGTDFTLTISSLQPEDFATYYCQQSYSTPYTFGQGTKLEIKR; < 2 fold

Ask | Give me measured geometric mean MFI fold change over Jurkat parental, please, for this binder: Polypeptide No. 29 (scFv, V domains shown, scFv) VH: QVQLVQSGAEVKKPGASVKVSCKASGYTFTGYYLHWVRQAPGQGLEWMGVINVRRGSTRYAQNFQGRVTMTRDTSTSTVYMELSSLRSEDTAVYYCARVSGSYYQPWGQGTLVTVSS VL: DIQMTQSPSSLSASVGDRVTITCRASQSISRWLAWYQQKPGKAPKLLIYDASNLETGVPSRFSGSGSGTDFTLTISSLQPEDFATYYCQQGNSFPPIFGGGTKVEIKR
Reply | 2 to 10 fold
